Target: the molecule itself
Assay: non-reducing SDS-PAGE with western blot; lysates of BmN-SWU1 cells transfected with pIZ-DsRed-LEF11 truncation or point mutant plasmids; loading buffer without β-mercaptoethanol; anti-DsRed blot
This section presents proteins with their documented stoichiometry N values.

protein: IQALFREAINTLKHTMNTEDVCAHMLDIVSFERIKEYIRA (domain or fragment, LEF-11 of BmNPV, residues 22-61; source: BmN-SWU1 cells, transfected, in lysate; not shown: DsRed, N-terminal, kept) [DsRed-LEF11 (22–61)]
stoichiometry N: 2
//
protein: KCSKRKVCLHHKRIARLLGIKKIYHQEYKRVVSKVYKNQTW (domain or fragment, LEF-11 of BmNPV, residues 72-112; source: BmN-SWU1 cells, transfected, in lysate; not shown: DsRed, N-terminal, kept) [DsRed-LEF11 (72–112)]
stoichiometry N: 2
//
protein: pIZ-DsRed-LEF11-L88E&L89E (natural protein, LEF-11 of BmNPV with L88E and L89E; Probably the whole LEF-11 as in pIZ-DsRed-LEF11; source: BmN-SWU1 cells, transfected, in lysate; not shown: DsRed, N-terminal, kept) MPPKNCTHLGGCNSDCLTRSEIQALFREAINTLKHTMNTEDVCAHMLDIVSFERIKEYIRANLGHFTVITDKCSKRKVCLHHKRIAREEGIKKIYHQEYKRVVSKVYKNQTW
stoichiometry N: 2

Each recorded value in this set is attributed to paper PMC4678028.
